B1: RIPK4 (parent)
chain: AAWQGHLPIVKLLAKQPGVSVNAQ

Variants of: B1
Protocol Text: protein stability index of a GFP-peptide fusion (GPS, HEK-293T) (PSI 1-6); higher = more stable;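 also: lentivirally expressed fusions sorted by FACS into six bins by GFP to DsRed ratio, PSI derived from sequencing read proportions per bin multiplied by bin number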
Condition Set: c terminus: a fixed tail appended
Attribute Measured: protein stability index
// return just the number, without any unit appended

Answered cases to consult:
Residue Sequence	protein stability index
AAWQGHLPIVKLLAKQPGVSVNAC [Q24C]	2.19
AAWQGHLHIVKLLAKQPGVSVNAQ [P8H]	2.08

// moving on: another record for protein stability index
Exercise: Please report the measured protein stability index for AAQQGHLPIVKLLAKQPGVSVNAQ [W3Q]
Solution: 3.5
